Provide the reported melting point of each item.

Some solved entries appear below for comparison.
| Compound | Reported endpoint | Result value |
| --- | --- | --- |
| CCCCCCC(O)CC(=O)O (configuration not stated) | melting point | 49.3 to 50 °C |
| OC(CN1CCOCC1)c1cc(C(F)(F)F)nc2c(C(F)(F)F)cccc12 (configuration not stated) | melting point | 129 to 130 °C |
| COc1cccc2c(=O)c(C(N)=O)coc12 | melting point | 229 to 231 °C |
| O=C(CCc1nc2ccccc2s1)Nc1cc(N2CC(c3ccccc3)OC2=O)ccn1 (configuration not stated) | melting point | 229 to 230 °C |
| NC(=O)C(=O)NC(C(=O)O)c1ccco1 (configuration not stated) | melting point | 174 °C |
| CCOCc1nc2c(N)nc3cccnc3c2n1CCCON=C1CCN(C)CC1 | melting point | 111 to 112 °C |
| CC(C)(CNC(=O)CN1CCCC1=O)N1CCCCC1 | melting point | 69 °C |
| CSc1ncc2ccc(=O)n(C)c2n1 | melting point | 192 to 193 °C |

Hey, quick one: what's melting point for each of these?
1. COc1ccc(C2(O)CCN(Cc3ccccc3)CC2)cc1OC
2. CCCn1c(=O)c2[nH]c(-c3ccoc3)nc2n(CCC)c1=O

Reply:
1: 112 to 114 °C; 2: 244 to 245 °C

# credit: a melting point compilation (Tetko et al.; mined from patent text by program, amines drawn as free bases though some values may be those of a salt)
